Attribution: paper PMC9926489

Test summary: Mouse pharmacokinetics, lung epithelial lining fluid (ELF)
Type: in vivo
Condition description: female, ICR (CD-1), lung epithelial lining fluid (ELF), single 10 mg/kg IV dose, epithelial lining fluid, read-out: ELF AUClast
In this section, each of the compounds is paired with its reported AUC(0-t).
A bare number is not enough; add the unit after it.

| Mol smiles | Measured endpoint | Observed |
| --- | --- | --- |
| COc1cc2sc(CNC(=O)C3(CC(=O)O)Cc4cc(F)c(F)cc4C3)nc2cc1OCCC[N+](C)(CCO)CCO | AUC(0-t) | 27000 ng·h/mL |

AUC(0-t) lookup needed for "COc1cc2sc(CNC(=O)C3(CC(=O)O)Cc4ccccc4C3)nc2cc1OCCC[N+](C)(C)C" , thanks.
57700 ng·h/mL

====

Assayed system: purified LasB (Pseudomonas aeruginosa, UniProt P14756)
Construct: The mature LasB protein is a 33 kDa metalloprotease, which is secreted from P. aeruginosa; host or cells: P. aeruginosa PAO1 (native secretion, culture supernatant)
Sequence (P14756 198-498): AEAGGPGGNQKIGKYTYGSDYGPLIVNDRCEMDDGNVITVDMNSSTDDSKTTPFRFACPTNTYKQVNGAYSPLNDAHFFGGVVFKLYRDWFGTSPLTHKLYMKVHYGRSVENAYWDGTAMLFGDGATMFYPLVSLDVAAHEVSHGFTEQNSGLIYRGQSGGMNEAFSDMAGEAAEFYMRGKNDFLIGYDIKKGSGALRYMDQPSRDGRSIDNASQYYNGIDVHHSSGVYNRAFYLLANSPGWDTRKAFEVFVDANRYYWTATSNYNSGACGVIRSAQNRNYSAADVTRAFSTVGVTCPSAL
Test summary: LasB inhibition, fluorimetric Abz-AGLA-Nba hydrolysis assay with purified LasB
Assay type: biochemical
Measured endpoint: pIC50
Remember the convention: pIC50 equals -log10 of concentration in molar.

Consider the reported pIC50 for these compounds:
| Mol smiles | Observed |
| --- | --- |
| COc1cc2sc(CNC(=O)C3(CC(=O)O)Cc4ccccc4C3)nc2cc1OCCCN(C)C | 7.10 |
| O=C(O)CC1(C(=O)NCc2nc3ccccc3s2)Cc2ccccc2C1 | 6.39 |
| COc1cc2sc(CNC(=O)C3(CC(=O)O)Cc4ccccc4C3)nc2cc1OCCC[N+](C)(CCO)CCO | 6.72 |

Observed pIC50 on purified LasB (Pseudomonas aeruginosa, UniProt P14756) for "COc1cc2sc(CNC(=O)C3(CC(=O)O)Cc4cc(F)c(F)cc4C3)nc2cc1OCCC[N+](C)(CCO)CCO" , please.
7.10

====

Test summary: Mouse pharmacokinetics, lung epithelial lining fluid (ELF)
Format: in vivo
Condition description: female, ICR (CD-1), lung epithelial lining fluid (ELF), single 10 mg/kg IV dose, epithelial lining fluid, read-out: ELF t1/2 (converted)
Measured endpoint: half-life (min)
Entry rule: numbers only, all in min.

| Mol smiles | Observed |
| --- | --- |
| COc1cc2sc(CNC(=O)C3(CC(=O)O)Cc4cc(F)c(F)cc4C3)nc2cc1OCCC[N+](C)(CCO)CCO | 570 |

// moving on: another record for half-life
half-life lookup needed for "COc1cc2sc(CNC(=O)C3(CC(=O)O)Cc4ccccc4C3)nc2cc1OCCC[N+](C)(C)C" , thanks.
1550

====

Assayed system: purified LasB (Pseudomonas aeruginosa, UniProt P14756)
Construct: The mature LasB protein is a 33 kDa metalloprotease, which is secreted from P. aeruginosa; host or cells: P. aeruginosa PAO1 (native secretion, culture supernatant)
Test summary: LasB inhibition, fluorimetric Abz-AGLA-Nba hydrolysis assay with purified LasB
Type: biochemical
From the text: This was chosen as the starting point for a medicinal chemistry-driven lead optimization program aiming to improve potency and solubility whilst retaining selectivity against host metalloenzymes. All synthesized compounds were initially assessed in a fluorimetric assay measuring hydrolysis of a fluorogenic substrate Abz-Ala-Gly-Leu-Ala-4-nitrobenzylamide (Abz-AGLA-Nba) by purified LasB and IC50 values determined (Tables 1 and 2). […]
Measured endpoint: Ki (nM)
Entry rule: numbers only, all in nM.

| Compound | Assayed system | Ki [nM] |
| --- | --- | --- |
| COc1cc2sc(CNC(=O)C3(CC(=O)O)Cc4cc(F)c(F)cc4C3)nc2cc1OCCC[N+](C)(CCO)CCO [Compound 16] | purified LasB (Pseudomonas aeruginosa, UniProt P14756) | 32 |

// moving on: another record for Ki
Observed Ki on purified LasB (Pseudomonas aeruginosa, UniProt P14756) for COc1cc2sc(CNC(=O)C3(CC(=O)O)Cc4ccccc4C3)nc2cc1OCCC[N+](C)(C)C [Compound 12] , please.
35

====

In this section, each of the compounds is paired with its reported solubility.
Test summary: Thermodynamic solubility in PBS (pH 7.4)
Format: physicochemical
Condition description: aqueous buffer, thermodynamic from solid
Entry rule: numbers only, all in mg/mL.

Consider the reported solubility for these compounds:
| Mol smiles | Readout unit | Observed |
| --- | --- | --- |
| CN1CCN(c2ccc3nc(CNC(=O)C4(CC(=O)O)Cc5ccccc5C4)sc3c2)CC1 | mg/mL | 3.4 |
| C[N+]1(C)CCN(c2ccc3nc(CNC(=O)C4(CC(=O)O)Cc5ccccc5C4)sc3c2)CC1 | mg/mL | 18.7 |
| COc1cc2nc(CNC(=O)C3(CC(=O)O)Cc4ccccc4C3)sc2cc1OC | mg/mL | 2 |

solubility lookup needed for "COc1cc2sc(CNC(=O)C3(CC(=O)O)Cc4cc(F)c(F)cc4C3)nc2cc1OCCC[N+](C)(CCO)CCO" , thanks.
15.1

Do the same for "COc1cc2sc(CNC(=O)C3(CC(=O)O)Cc4cc(F)c(F)cc4C3)nc2cc1OCC1CC[N+](C)(C)CC1" please
17.8

Do the same for "COc1cc2sc(CNC(=O)C3(CC(=O)O)Cc4ccccc4C3)nc2cc1OCC1CC[N+](C)(C)CC1" please
15.8

Do the same for "C[N+](C)(C)CCOc1ccc2sc(CNC(=O)C3(CC(=O)O)Cc4ccccc4C3)nc2c1" please
18.1

Do the same for "COc1cc2sc(CNC(=O)C3(CC(=O)O)Cc4ccccc4C3)nc2cc1OCCC[N+](C)(C)C" please
17.7

====

In this section, each of the compounds is paired with its reported half-life.
Test summary: Mouse pharmacokinetics, plasma
Assay type: in vivo
Condition description: female, ICR (CD-1), plasma, iv, 10 mg/kg, single 10 mg/kg IV dose, read-out: plasma t1/2 (converted)

| Mol smiles | Observed |
| --- | --- |
| COc1cc2sc(CNC(=O)C3(CC(=O)O)Cc4ccccc4C3)nc2cc1OCCC[N+](C)(C)C | ~6 h |

// moving on: another record for half-life
half-life lookup needed for "COc1cc2sc(CNC(=O)C3(CC(=O)O)Cc4cc(F)c(F)cc4C3)nc2cc1OCCC[N+](C)(CCO)CCO" , thanks.
~6 h

====

Test summary: Mouse pharmacokinetics, lung epithelial lining fluid (ELF)
Format: in vivo
Condition description: female, ICR (CD-1), lung epithelial lining fluid (ELF), single 10 mg/kg IV dose, epithelial lining fluid, read-out: ELF CL
Measured endpoint: clearance (mL/min/kg)
Entry rule: numbers only, all in mL/min/kg.

| Mol smiles | clearance [mL/min/kg] |
| --- | --- |
| COc1cc2sc(CNC(=O)C3(CC(=O)O)Cc4ccccc4C3)nc2cc1OCCC[N+](C)(C)C | 1.5 |

// moving on: another record for clearance
clearance lookup needed for "COc1cc2sc(CNC(=O)C3(CC(=O)O)Cc4cc(F)c(F)cc4C3)nc2cc1OCCC[N+](C)(CCO)CCO" , thanks.
5.2

====

Assayed system: rabbit angiotensin-converting enzyme (ACE) (Oryctolagus cuniculus)
Construct: purchased Sigma
Sequence (P12822 34-1310): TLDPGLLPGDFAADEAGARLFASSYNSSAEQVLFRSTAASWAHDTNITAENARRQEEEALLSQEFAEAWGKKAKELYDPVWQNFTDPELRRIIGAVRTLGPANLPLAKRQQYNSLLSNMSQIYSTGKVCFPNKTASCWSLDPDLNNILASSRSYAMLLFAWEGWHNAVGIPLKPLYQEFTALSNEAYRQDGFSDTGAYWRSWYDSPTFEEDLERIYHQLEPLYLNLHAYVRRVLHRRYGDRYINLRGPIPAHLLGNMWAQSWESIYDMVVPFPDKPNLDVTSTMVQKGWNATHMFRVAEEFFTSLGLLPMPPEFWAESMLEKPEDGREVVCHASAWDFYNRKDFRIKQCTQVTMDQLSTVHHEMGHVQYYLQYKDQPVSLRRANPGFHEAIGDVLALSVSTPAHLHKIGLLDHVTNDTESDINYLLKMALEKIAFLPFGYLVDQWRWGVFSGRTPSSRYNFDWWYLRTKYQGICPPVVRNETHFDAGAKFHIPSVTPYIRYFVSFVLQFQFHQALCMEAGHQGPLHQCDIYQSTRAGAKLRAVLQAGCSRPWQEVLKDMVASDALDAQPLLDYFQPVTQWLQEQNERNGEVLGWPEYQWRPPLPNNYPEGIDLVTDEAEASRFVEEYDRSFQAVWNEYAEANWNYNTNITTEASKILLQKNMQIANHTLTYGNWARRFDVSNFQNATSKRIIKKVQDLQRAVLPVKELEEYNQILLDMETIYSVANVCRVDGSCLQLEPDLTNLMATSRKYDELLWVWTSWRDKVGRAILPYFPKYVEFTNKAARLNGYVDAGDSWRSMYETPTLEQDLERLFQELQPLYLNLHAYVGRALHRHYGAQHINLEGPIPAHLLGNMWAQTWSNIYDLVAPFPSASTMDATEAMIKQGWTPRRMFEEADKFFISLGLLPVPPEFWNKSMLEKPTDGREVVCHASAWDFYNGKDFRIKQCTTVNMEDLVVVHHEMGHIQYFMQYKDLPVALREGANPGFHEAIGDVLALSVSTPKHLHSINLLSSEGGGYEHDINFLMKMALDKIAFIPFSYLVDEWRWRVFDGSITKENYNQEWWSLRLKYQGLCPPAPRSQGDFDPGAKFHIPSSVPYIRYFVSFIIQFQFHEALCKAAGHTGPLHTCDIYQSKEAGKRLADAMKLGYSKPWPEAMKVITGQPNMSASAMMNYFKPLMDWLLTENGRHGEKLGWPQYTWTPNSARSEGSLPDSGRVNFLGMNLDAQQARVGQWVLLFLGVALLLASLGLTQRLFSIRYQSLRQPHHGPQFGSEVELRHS
Test summary: ACE selectivity assay
Format: biochemical
pIC50: −log10 of the molar value.
Measured endpoint: pIC50

pIC50 lookup needed for "COc1cc2sc(CNC(=O)C3(CC(=O)O)Cc4cc(F)c(F)cc4C3)nc2cc1OCCC[N+](C)(CCO)CCO" , thanks.
< 3.70

====

Test summary: Thermodynamic solubility in PBS (pH 7.4)
Assay type: physicochemical
Condition description: aqueous buffer, thermodynamic from solid
In this section, each of the molecules is paired with its reported log10 of solubility.
For clarity, the numbers are log10 values of solubility expressed in µg/mL.

| Mol smiles | log10 of solubility |
| --- | --- |
| O=C(O)CC1(C(=O)NCc2nc3ccccc3s2)Cc2ccccc2C1 | 2.76 |
| O=C(O)CC1(C(=O)NCc2nc3cc4c(cc3s2)OCO4)Cc2ccccc2C1 | 3.30 |

log10 of solubility lookup needed for "CN(C)CCOc1ccc2sc(CNC(=O)C3(CC(=O)O)Cc4ccccc4C3)nc2c1" , thanks.
3.62

Do the same for "O=C(O)CC1(C(=O)NCc2nc3ccccc3s2)Cc2cc(F)c(F)cc2C1" please
2.78

Do the same for "COc1cc2sc(CNC(=O)C3(CC(=O)O)Cc4ccccc4C3)nc2cc1OCCC[N+](C)(CCO)CCO" please
4.25

====

Assayed system: purified LasB (Pseudomonas aeruginosa, UniProt P14756)
Construct: The mature LasB protein is a 33 kDa metalloprotease, which is secreted from P. aeruginosa; host or cells: P. aeruginosa PAO1 (native secretion, culture supernatant)
Test summary: LasB inhibition, fluorimetric Abz-AGLA-Nba hydrolysis assay with purified LasB
Format: biochemical
From the text: This was chosen as the starting point for a medicinal chemistry-driven lead optimization program aiming to improve potency and solubility whilst retaining selectivity against host metalloenzymes. All synthesized compounds were initially assessed in a fluorimetric assay measuring hydrolysis of a fluorogenic substrate Abz-Ala-Gly-Leu-Ala-4-nitrobenzylamide (Abz-AGLA-Nba) by purified LasB and IC50 values determined (Tables 1 and 2). […]
Measured endpoint: IC50 (µM)
Entry rule: numbers only, all in µM.

| Molecule | Assayed system | Readout unit | IC50 |
| --- | --- | --- | --- |
| COc1cc2nc(CNC(=O)C3(CC(=O)O)Cc4ccccc4C3)sc2cc1OC [Compound 4] | purified LasB (Pseudomonas aeruginosa, UniProt P14756) | µM | 0.02 |

// moving on: another record for IC50
Observed IC50 on purified LasB (Pseudomonas aeruginosa, UniProt P14756) for C[N+](C)(C)CCOc1ccc2sc(CNC(=O)C3(CC(=O)O)Cc4ccccc4C3)nc2c1 [Compound 9] , please.
0.82
